Hello, the source for this data is the RNAGym collection of RNA variant scans (doi:10.1126/science.aae0568), in case you need it.

B1: tRNA (parent)
chain: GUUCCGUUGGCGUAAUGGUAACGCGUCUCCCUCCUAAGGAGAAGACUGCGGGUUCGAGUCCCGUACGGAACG

variants of: B1; test: yeast fitness relative to wild type (ratio to wild type); higher = fitter; tRNA-Arg(CCU), competitive growth, 37 C, YPD
This sample holds only a part of the variants without activity.
Classify as follows. Reported yeast fitness greater than or equal to 0.6: fulfilled. Reported yeast fitness below: not fulfilled.

- variantLabel: "G17A C49G"
  labelClass: "fulfilled"
- variantLabel: "G10A U19A G44C G67C"
  labelClass: "not fulfilled"
- variantLabel: "A45C G56A"
  labelClass: "fulfilled"
- variantLabel: "C5G C27G C34G G63C C66U"
  labelClass: "not fulfilled"
- variantLabel: "G9U C22U"
  labelClass: "fulfilled"
- variantLabel: "U7C U26G"
  labelClass: "fulfilled"
- variantLabel: "U3A C4A U8C C29G A37C A69C"
  labelClass: "not fulfilled"
- variantLabel: "U28A C31U U32A G52A A57U C60U A65G G68A"
  labelClass: "not fulfilled"
- variantLabel: "U26C A45G"
  labelClass: "fulfilled"
- variantLabel: "C22A C31A U53C A57C C60U"
  labelClass: "not fulfilled"
